test system: NCI-H226 lung; test: NCI tumour cell line growth inhibition, 48 h
# TGI per record follows

{"columns": ["compound", "TGI"],
 "data": [
  ["CC(=O)OC1[C@H](n2ccnc2)C[C@H]2[C@@H]3CC=C4CC(N5CCCC5)CC[C@]4(C)[C@H]3CC[C@]12C (some centres undefined)", "> 100 µM"],
  ["O=C1CCC2(c3ccccc3)Nc3ccc(Cl)cc3N12 (centres undefined)", "> 100 µM"],
  ["Cc1ccc(S(=O)(=O)N2CCCSCCN(S(=O)(=O)c3ccc(C)cc3)CCCSCC2)cc1", "> 100 µM"],
  ["COc1ccc(/C=C2\\CN(C)CC3C2=NN(c2ccccc2)C3c2ccc(OC)cc2)cc1 (centres undefined)", "> 100 µM"]
]}
